- Protocol details: reversal of MRP1-mediated doxorubicin resistance, pilot screen, H69AR cells, doxorubicin co-treatment (AID 601)
- Measurement context: H69AR cells, CellTiter-Glo, 72 h; compound alone cytotoxicity; at 10 µM
We label by threshold. Values of viability strictly beneath 90% are true (1). Values of 90% and up are false (0).

Challenge: Strictly below 90%: is that where viability of CCN(CC)CCCN1C(=O)C(=O)/C(=C(/O)c2ccc3c(c2)OCO3)C1c1ccccn1 (stereo unspecified) sits?
Response given: false (0)

Challenge: Is 90% strictly greater than the compound's reported viability? compound: `O=C(c1cccs1)N(Cc1ccco1)Cc1cc2ccccc2[nH]c1=O`
Response given: true (1)

Challenge: Does this compound meet the criterion viability < 90%? `COc1ccc(-c2noc(CN3C(=O)c4ccccc4C3=O)n2)cc1`
Response given: false (0)

Challenge: Here's an entry: CCc1nnc(NC(=O)C2Cc3ccccc3CN2S(=O)(=O)c2cccs2)s1 (stereo unspecified) . Is its viability below 90%?
Response given: true (1)

Challenge: Determine if COc1ccc(-n2c(SCC(=O)N3CCCCC3C)nnc2-c2cccnc2)cc1 (stereo unspecified) shows viability strictly lower than 90%.
Response given: false (0)

Challenge: viability under 90%? Item: O=C(c1cnn2c(C(F)F)cc(-c3ccccc3)nc12)N1CCN2CCCC2C1 (stereo unspecified)
Response given: true (1)

Challenge: Determine if `O=S(=O)(Nc1ccc2c(c1)OCO2)c1ccc(Br)s1` shows viability strictly lower than 90%.
Response given: false (0)

Challenge: Input `COC(=O)c1ccc(CSc2nnnn2Cc2ccccc2)cc1` ; condition: viability strictly below 90%. Does it hold?
Response given: true (1)

src = PubChem BioAssay
